Kindly supply the reported TGI values for the records listed here.
# Test system: UO-31 renal
# measurementProtocol: NCI tumour cell line growth inhibition, 48 h

[[record]]
molecule = "N/C=N/S(=O)(=O)c1ccc(NC(=O)COC(=O)c2cccc3c(=O)c4ccccc4[nH]c23)cc1"
targetofassay = "UO-31 renal"
valuemeasured = "> 100 µM"

[[record]]
molecule = "O[C@@H]1C[C@H](Cl)c2c(Cl)sc(Cl)c21"
targetofassay = "UO-31 renal"
valuemeasured = "> 100 µM"


Which TGI is listed for CSc1ncc2c(n1)-c1ccccc1OC2N1CCOCC1 (stereo not drawn) ?
> 100 µM

----------
# Test system: KM12 colon
# measurementProtocol: NCI tumour cell line growth inhibition, 48 h
resultType: TGI

Example compounds with recorded TGI:
[[record]]
compound = "C/C(=N\\Nc1nc2cc(Cl)ccc2s1)c1ccccn1"
valuemeasured = "> 84.8 µM"

[[record]]
compound = "Cn1c(-c2ccc(-c3cc(-c4cccs4)c(-c4cccs4)n3C)cc2)cc(-c2cccs2)c1-c1cccs1"
valuemeasured = "> 100 µM"

[[record]]
compound = "ClCCCSSCCCCl"
valuemeasured = "> 95.1 µM"

[[record]]
compound = "Cc1ccccc1C1=C(c2cn(C)c3ccccc23)C(=O)NC1=O"
valuemeasured = "> 25 µM"

[[record]]
compound = "COc1cc2c(cc1OC)C(C#N)N(C(=O)c1ccccc1)C=C2OC(=O)c1ccccc1 (stereo unspecified)"
valuemeasured = "> 100 µM"


# evaluate next
Which TGI is listed for COc1ccc(/C=C/C(=O)c2c(O)ccc3c(C)c(C(=O)O)oc23)cc1 ?
> 100 µM

----------
# Test system: SNB-19 CNS
# measurementProtocol: NCI tumour cell line growth inhibition, 48 h; in the data active means GI50 below about 0.43 µM; inactive means the rest
Valid outcomes are listed here; reply with one: active, inactive

# count of solved cases: 5
[[record]]
molecule = "NC(=O)c1cccc2c(N[C@H](CN3CCC3)c3ccc(Cl)c(C(F)(F)F)c3)ncnc12"
targetofassay = "SNB-19 CNS"
grouplabel = "inactive"

[[record]]
molecule = "Oc1c(C(Nc2ccccn2)c2cccc(Oc3ccccc3)c2)ccc2cccnc12 (stereo unspecified)"
targetofassay = "SNB-19 CNS"
grouplabel = "active"

[[record]]
molecule = "C/C(CCC(=O)O)=N/Nc1ccc([N+](=O)[O-])cc1"
targetofassay = "SNB-19 CNS"
grouplabel = "inactive"

[[record]]
molecule = "CN1CCN(Cc2ccc(NC(=O)c3cncc(C#Cc4c(N)ncc5ccc(C#N)cc45)c3)cc2C(F)(F)F)CC1"
targetofassay = "SNB-19 CNS"
grouplabel = "inactive"

[[record]]
molecule = "CCC(C)(C)c1cc(O)c(C(C)(C)CC)cc1O"
targetofassay = "SNB-19 CNS"
grouplabel = "inactive"


Here is another molecule to look at.
Outcome? C/C(=N\NC(=S)N1CCN(c2ccccn2)CC1)c1ccccn1
active

----------
# Tested on: SNB-75 CNS
# measurementProtocol: NCI tumour cell line growth inhibition, 48 h
Kindly supply the reported TGI values for the records listed here.

[[record]]
molecule = "CN1C(=O)CC2(C)c3cc(O)cc(Br)c3N(C)C12 (stereo not drawn)"
resulttype = "TGI"
valuemeasured = "> 100 µM"

[[record]]
molecule = "COc1cc(C2c3cc4c(cc3OC(NNC(N)=O)C2C)OCO4)cc(OC)c1OC (stereo not drawn)"
resulttype = "TGI"
valuemeasured = "> 87.9 µM"


Lab note: need TGI for Cc1cc(=O)oc2cc(OCCCOc3ccc4c(C)cc(=O)oc4c3)ccc12 on SNB-75 CNS, anyone have it?
> 100 µM
